Target: recombinant rat L-type calcium channel (LTCC) subunits (α1c, α2δ, and β1) (Rattus norvegicus)
Sequence (P22002 whole entry): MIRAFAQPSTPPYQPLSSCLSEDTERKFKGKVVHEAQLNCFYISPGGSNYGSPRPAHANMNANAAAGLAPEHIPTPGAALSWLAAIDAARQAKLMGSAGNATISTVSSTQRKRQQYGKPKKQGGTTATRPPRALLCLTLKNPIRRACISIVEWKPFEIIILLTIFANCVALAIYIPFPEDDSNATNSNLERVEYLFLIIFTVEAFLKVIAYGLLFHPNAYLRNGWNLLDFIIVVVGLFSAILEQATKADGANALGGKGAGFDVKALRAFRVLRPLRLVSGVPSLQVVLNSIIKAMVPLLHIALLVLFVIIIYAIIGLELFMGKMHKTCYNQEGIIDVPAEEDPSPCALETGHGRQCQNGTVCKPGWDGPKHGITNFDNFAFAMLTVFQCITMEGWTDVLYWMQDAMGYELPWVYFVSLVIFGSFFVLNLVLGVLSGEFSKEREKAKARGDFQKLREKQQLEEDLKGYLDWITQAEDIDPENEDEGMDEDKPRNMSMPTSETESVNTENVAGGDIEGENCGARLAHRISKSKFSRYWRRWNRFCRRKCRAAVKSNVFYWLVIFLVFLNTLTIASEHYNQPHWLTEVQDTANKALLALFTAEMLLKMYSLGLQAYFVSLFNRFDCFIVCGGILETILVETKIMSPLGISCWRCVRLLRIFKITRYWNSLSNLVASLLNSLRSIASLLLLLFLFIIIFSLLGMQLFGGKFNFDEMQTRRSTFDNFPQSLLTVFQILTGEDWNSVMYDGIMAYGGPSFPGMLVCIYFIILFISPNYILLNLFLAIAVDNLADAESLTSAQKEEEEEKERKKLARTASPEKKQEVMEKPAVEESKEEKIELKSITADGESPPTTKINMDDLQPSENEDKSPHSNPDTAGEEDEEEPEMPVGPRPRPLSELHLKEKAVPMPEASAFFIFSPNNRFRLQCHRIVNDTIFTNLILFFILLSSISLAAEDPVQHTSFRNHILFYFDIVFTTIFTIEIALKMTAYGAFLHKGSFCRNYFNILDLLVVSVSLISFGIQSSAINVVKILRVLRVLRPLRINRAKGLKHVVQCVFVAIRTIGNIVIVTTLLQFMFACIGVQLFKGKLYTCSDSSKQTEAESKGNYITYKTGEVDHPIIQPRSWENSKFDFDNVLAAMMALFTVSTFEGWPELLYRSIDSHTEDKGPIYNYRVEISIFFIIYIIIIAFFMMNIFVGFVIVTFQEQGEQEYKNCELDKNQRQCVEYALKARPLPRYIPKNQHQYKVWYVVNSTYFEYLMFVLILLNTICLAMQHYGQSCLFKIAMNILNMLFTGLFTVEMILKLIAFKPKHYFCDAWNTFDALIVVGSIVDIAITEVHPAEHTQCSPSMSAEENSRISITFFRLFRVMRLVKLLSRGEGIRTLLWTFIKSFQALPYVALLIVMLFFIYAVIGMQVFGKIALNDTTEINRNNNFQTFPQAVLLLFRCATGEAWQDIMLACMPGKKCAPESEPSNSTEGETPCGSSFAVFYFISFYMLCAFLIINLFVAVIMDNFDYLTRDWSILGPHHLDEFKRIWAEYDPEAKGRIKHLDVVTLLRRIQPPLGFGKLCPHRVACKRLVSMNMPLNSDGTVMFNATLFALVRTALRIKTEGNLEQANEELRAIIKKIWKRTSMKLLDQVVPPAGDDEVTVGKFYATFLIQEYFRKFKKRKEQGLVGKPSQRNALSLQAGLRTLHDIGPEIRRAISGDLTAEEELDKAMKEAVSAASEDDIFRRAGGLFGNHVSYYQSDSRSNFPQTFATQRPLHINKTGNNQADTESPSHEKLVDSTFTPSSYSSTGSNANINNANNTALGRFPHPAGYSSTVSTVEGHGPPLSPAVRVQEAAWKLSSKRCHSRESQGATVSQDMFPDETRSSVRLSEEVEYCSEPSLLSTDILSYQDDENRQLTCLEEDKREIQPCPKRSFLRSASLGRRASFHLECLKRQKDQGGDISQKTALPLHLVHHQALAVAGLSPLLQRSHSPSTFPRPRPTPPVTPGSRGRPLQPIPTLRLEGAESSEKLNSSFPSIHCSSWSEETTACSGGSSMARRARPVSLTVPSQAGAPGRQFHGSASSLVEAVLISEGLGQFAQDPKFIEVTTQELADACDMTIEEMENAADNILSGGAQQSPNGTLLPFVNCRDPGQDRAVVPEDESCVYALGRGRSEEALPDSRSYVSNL
Sequence (P54290 25-944 partner limits assumed): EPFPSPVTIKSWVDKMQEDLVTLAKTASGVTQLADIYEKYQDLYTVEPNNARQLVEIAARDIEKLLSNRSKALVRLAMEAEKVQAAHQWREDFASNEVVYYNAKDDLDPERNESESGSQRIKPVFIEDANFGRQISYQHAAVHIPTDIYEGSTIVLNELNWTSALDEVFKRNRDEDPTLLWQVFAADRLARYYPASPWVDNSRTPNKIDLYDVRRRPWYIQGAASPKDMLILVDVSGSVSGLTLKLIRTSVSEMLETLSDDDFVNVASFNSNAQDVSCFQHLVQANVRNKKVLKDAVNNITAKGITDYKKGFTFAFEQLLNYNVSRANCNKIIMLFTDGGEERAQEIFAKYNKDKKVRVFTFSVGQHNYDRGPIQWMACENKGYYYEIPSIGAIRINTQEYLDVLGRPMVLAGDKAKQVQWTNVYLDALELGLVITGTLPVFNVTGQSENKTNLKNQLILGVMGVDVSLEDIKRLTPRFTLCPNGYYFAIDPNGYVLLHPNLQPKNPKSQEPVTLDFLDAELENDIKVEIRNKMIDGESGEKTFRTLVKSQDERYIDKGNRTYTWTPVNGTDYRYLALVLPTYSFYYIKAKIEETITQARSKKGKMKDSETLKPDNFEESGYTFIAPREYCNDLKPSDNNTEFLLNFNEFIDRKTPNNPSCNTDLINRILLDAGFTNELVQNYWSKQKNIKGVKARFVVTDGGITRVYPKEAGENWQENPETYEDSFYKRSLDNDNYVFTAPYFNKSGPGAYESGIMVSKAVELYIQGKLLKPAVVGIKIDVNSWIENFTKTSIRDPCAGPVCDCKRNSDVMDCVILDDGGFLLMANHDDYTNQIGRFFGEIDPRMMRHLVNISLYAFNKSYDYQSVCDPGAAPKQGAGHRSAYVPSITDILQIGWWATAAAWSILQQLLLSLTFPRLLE
Sequence (P54290 945-1091 partner limits assumed): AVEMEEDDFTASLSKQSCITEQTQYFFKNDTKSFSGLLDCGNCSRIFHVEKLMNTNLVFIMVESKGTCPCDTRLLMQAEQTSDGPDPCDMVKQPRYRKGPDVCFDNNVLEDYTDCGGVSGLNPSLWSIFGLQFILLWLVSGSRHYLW
Sequence (P54283 whole entry partner): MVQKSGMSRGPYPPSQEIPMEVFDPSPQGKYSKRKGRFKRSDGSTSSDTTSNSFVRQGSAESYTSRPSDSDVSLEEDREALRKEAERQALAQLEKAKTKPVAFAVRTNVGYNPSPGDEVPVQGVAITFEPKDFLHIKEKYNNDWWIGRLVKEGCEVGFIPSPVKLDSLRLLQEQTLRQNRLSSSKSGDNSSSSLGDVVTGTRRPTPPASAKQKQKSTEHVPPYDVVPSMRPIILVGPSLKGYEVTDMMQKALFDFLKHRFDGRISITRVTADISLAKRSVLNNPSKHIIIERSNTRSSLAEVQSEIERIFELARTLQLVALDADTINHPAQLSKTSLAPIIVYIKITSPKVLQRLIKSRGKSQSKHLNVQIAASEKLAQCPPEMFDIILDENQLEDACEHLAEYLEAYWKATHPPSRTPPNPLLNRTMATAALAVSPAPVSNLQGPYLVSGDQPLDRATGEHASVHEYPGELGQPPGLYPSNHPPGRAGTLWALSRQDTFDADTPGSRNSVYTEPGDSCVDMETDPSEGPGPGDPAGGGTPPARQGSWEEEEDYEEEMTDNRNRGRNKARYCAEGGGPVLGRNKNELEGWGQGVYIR
Assay: FLIPR calcium mobilization assay for L-type calcium channel
Conditions: calcium mobilization in vitro assay; HEK293 cells expressing rat LTCC
Criterion: IC50 strictly less than 4 µM. Met: T. Not met: F.

# example entries with known answers
Cc1cccc(C)c1NCCC(=O)N1CCC(N(C(C)C)S(=O)(=O)c2cccc(C(F)(F)F)c2)CC1    F
COc1ccccc1NC(=O)CCN1CCC(N(C(C)C)S(=O)(=O)c2cccc(C(F)(F)F)c2)CC1 [Compound 107b]    F
CC(C)N(C1CCN(C(=O)CN(CCO)Cc2ccccc2)CC1)S(=O)(=O)c1cccc(C(F)(F)F)c1 [Compound 103]    F
O=C(CN1CCC(N(C2CC2)S(=O)(=O)c2cccc(C(F)(F)F)c2)CC1)Nc1ccc(C(F)(F)F)cc1 [Compound 55]    F
O=C(CN1CCC(N(C2CC2)S(=O)(=O)c2cccc(C(F)(F)F)c2)CC1)Nc1cncc(F)c1 [Compound 78]    F
CCC(C(=O)N1CCC(N(C(C)C)S(=O)(=O)c2cccc(C(F)(F)F)c2)CC1)N(C)Cc1ccccc1 (stereo not drawn) [Compound 96]    F

Quick check: does CC(C)N(C1CCN(C(=O)[C@H](Cc2ccccc2)NCC2CCCCC2)CC1)S(=O)(=O)c1cccc(C(F)(F)F)c1 [Compound 88d] have IC50 under 4 µM? T

Quick check: does CC(C)N(C1CCN(C(=O)CCNc2ccc(F)cc2Cl)CC1)S(=O)(=O)c1cccc(C(F)(F)F)c1 have IC50 under 4 µM? F

Quick check: does CC(C)N(C1CCN(CCC(=O)Nc2ccc(F)cc2)CC1)S(=O)(=O)c1cccc(C(F)(F)F)c1 [Compound 107a] have IC50 under 4 µM? F

Quick check: does CC(C)CC(CC(=O)N1CCC(N(C(C)C)S(=O)(=O)c2cccc(C(F)(F)F)c2)CC1)NCCOCc1ccccc1 (stereo not drawn) have IC50 under 4 µM? F

Quick check: does O=C(CC(=O)N1CCC(N(C2CC2)S(=O)(=O)c2cccc(C(F)(F)F)c2)CC1)Nc1ccc(F)cc1 [Compound 26] have IC50 under 4 µM? T

Quick check: does CC(C)N(C1CCN(CC(=O)Nc2ccc(C#N)cc2)CC1)S(=O)(=O)c1cccc(C(F)(F)F)c1 [Compound 42g] have IC50 under 4 µM? T

Taken from patent US8791264B2.
